# Tested on: Fibroblast
# procedure-details: Multiplex assay against human fibroblast
# Assay type: toxicity, cell-based
# condition-context: 48 h, 1 µM, compound concentration 1 uM, replicate 2
readout: Population Tubulin-Different-Phenotype (%)
# unit: % | format: bare number

[
  {
    "compound": "c1cc(OCCCN2CCCCC2)ccc1CN1CCCCC1",
    "assay-system": "Fibroblast",
    "readout-unit": "%",
    "reported": 50
  },
  {
    "compound": "C[C@@H]1C[C@H]2[C@@H]3CCC4=CC(=O)C=C[C@]4(C)[C@@]3(F)[C@@H](O)C[C@]2(C)[C@@]1(O)C(=O)CO",
    "assay-system": "Fibroblast",
    "readout-unit": "%",
    "reported": 53
  },
  {
    "compound": "COc1ccc2c(c1)C(C(=O)N(Cc1ccc(N(C)C)cc1)c1ccc(C(C)C)cc1)CCC2.Cl (centres undefined)",
    "assay-system": "Fibroblast",
    "readout-unit": "%",
    "reported": 46
  },
  {
    "compound": "CCOc1c2c(c(OCC)c3ncccc13)CN(c1ccc(CS(=O)(=O)NC(=O)Cc3ccccc3OC)cc1C)C2=O",
    "assay-system": "Fibroblast",
    "readout-unit": "%",
    "reported": 72
  },
  {
    "compound": "CSCC[C@H](NC=O)C(=O)N[C@@H](CC(C)C)C(=O)N[C@@H](Cc1ccccc1)C(=O)O",
    "assay-system": "Fibroblast",
    "readout-unit": "%",
    "reported": 54
  },
  {
    "compound": "Cc1ccc(/C(=C\\CN2CCCC2)c2ccccn2)cc1",
    "assay-system": "Fibroblast",
    "readout-unit": "%",
    "reported": 57
  },
  {
    "compound": "CCCC(CCC)C(=O)O",
    "assay-system": "Fibroblast",
    "readout-unit": "%",
    "reported": 55
  },
  {
    "compound": "CCCN1CCC[C@@H]2Cc3n[nH]cc3C[C@H]21.Cl [QUINPIROLE HYDROCHLORIDE]",
    "assay-system": "Fibroblast",
    "readout-unit": "%",
    "reported": 42
  }
]

Challenge: Fill blank: measured Population Tubulin-Different-Phenotype (%) of the compound CC(C)(C)c1ccc(S(=O)(=O)Nc2ccc(Cl)cc2C(=O)c2cc[n+]([O-])cc2)cc1 is ____.
Response given: 37

Challenge: Fill blank: measured Population Tubulin-Different-Phenotype (%) of the compound COc1cc(NC(=O)CCN2CCC(OC(=O)Nc3ccccc3-c3ccccc3)CC2)c(Cl)cc1CNC[C@H](O)c1ccc(O)c2[nH]c(=O)ccc12 is ____.
Response given: 70

Challenge: Fill blank: measured Population Tubulin-Different-Phenotype (%) of the compound CNC[C@H](O)c1ccc(O)c(O)c1 [EPINEPHRINE] is ____.
Response given: 45
